Read-out: Early growth response protein 1 (EGR1) transcription factor, EGR1 (gene 1958)
assay-protocol: LTEA_HepaRG_EGR1: Life Technologies and Expression Analysis (LTEA) Assay for Early growth response protein 1 (EGR1) transcription factor using HepaRG (AID 2283490)
run-conditions: mRNA level, 48 h; actives raise or lower the signal
Activity calls are given as the source filed them. The calls were made as follows: active = hit-call score of the fitted dose curve at least 0.9, where 1 is the maximum; inactive = score below 0.9.
Classes used: 1.0 (active), 0.0 (inactive)

| compound | cat |
| --- | --- |
| c1ccc(C2CO2)cc1 (stereo not drawn) | 0.0 |
| CCC[CH2][Sn]([Cl])([CH2]CCC)[CH2]CCC | 1.0 |
| CCCSC(=O)N(CCC)CCC | 0.0 |
| CC(C)(C)OOC(C)(C)CCC(C)(C)OOC(C)(C)C | 0.0 |
| O=Cc1ccco1 | 0.0 |
| ClC1=C(Cl)C2(Cl)C3C(Cl)C=CC3C1(Cl)C2(Cl)Cl (stereo not drawn) | 0.0 |
| Cc1ccc(N)cc1 | 0.0 |
| CCCCCCCCCCCCCN1CC(C)OC(C)C1 (stereo not drawn) | 0.0 |

----------
subject-of-test: human Opioid Receptor Delta 1 (Opiate D1), OPRD1 (gene 4985)
assay-protocol: NVS_GPCR_hOpiate_D1: NovaScreen (NVS) G Protein-Coupled Receptor Assay for human Opioid Receptor Delta 1 (Opiate D1) (AID 2283280)
Records with an inconclusive call do not appear. The source made the active and inactive calls. How the source made its calls: active means hit-call score of the fitted dose curve at least 0.9, where 1 is the maximum; inconclusive means response in the unintended direction; inactive means score below 0.9.
Outcomes: y (active), n (inactive)

| structure | cat |
| --- | --- |
| [Cl-].[Cl-].[Hg+2] | y |
| O=P(OCCCl)(OCCCl)OCCCl | n |
| Nc1ccc(N=Nc2ccccc2)cc1 | n |
| O=C(N[C@H](c1ccccc1)[C@@H]1CN2CCC1CC2)c1c(Cl)ccc(C(F)(F)F)c1Cl | n |
| CCC[CH2][Sn]([Cl])([CH2]CCC)[CH2]CCC | y |
| CCOC(=O)[C@]1(c2ccccc2)Oc2ccccc2[C@@H]1N | y |
| CCCCCOC(=O)c1ccccc1C(=O)OCCCCC | n |

----------
subject-of-test: Paired box protein Pax-6 (Homo sapiens)
assay-protocol: ATG_Pax6_CIS: Attagene CIS-FACTORIAL HepG2 Assay for human Paired Box 6 (PAX6) (AID 2282956)
run-conditions: HepG2 CIS-FACTORIAL PAX6 reporter transcription, RNA readout; actives raise or lower the signal
The source made the active and inactive calls. The calls were made as follows: active = hit-call score of the fitted dose curve at least 0.9, where 1 is the maximum; inactive = score below 0.9.
reported-metric: AC50

| compound | recorded-measurement |
| --- | --- |
| Cc1cccc(N)c1N | 106 µM (active) |
| CC(C)(C)OOC(C)(C)CCC(C)(C)OOC(C)(C)C | inactive |
| Nc1cc(Cl)cc(C(=O)O)c1Cl | inactive |
| Clc1ccccc1Cl | inactive |
| CCCCCOC(=O)c1ccccc1C(=O)OCCCCC | inactive |
| CCCCOC(=O)c1ccccc1C(=O)OCc1ccccc1 | inactive |
| CCN(CC)N=O | inactive |
| CCOc1cccc(C2(N3CCN(c4ccccc4)CC3)CCC(C)CC2)c1 (stereo unspecified) | inactive |
| [O-][Cl+]O | inactive |
| Oc1ccccc1Cl | inactive |
| CN(C)C(=O)Nc1ccc(Cl)cc1 | inactive |
| CC(C)(O)c1cnn2c(-c3ccc(F)c(-c4c(F)cccc4C#N)c3)cnc2n1 | inactive |
| CCC[CH2][Sn]([Cl])([CH2]CCC)[CH2]CCC | 0.678 µM (active) |
| ClC1=C(Cl)[C@]2(Cl)[C@H]3[C@H]([C@@H]4C=C[C@H]3C4)[C@@]1(Cl)C2(Cl)Cl | inactive |
| Cn1cc(-c2ccccc2)c(=O)c(-c2cccc(C(F)(F)F)c2)c1 | inactive |
| CC(C)COC(=O)c1ccccc1C(=O)OCC(C)C | 100 µM (active) |
| Nc1ccc(Oc2ccc(N)cc2)cc1 | inactive |
| Cc1ccc(N)cc1 | inactive |
| O=[N+]([O-])C(Br)(CO)CO | 100 µM (active) |
| CCCSC(=O)N(CCC)CCC | inactive |
| O=Cc1ccco1 | inactive |
| Nc1ccc(Cl)cc1N | 27.4 µM (active) |
| Oc1ccc2ccc3cccc4ccc1c2c34 | inactive |
| O=C1CCCO1 | inactive |
| CN(C)c1ccc(C(=O)c2ccc(N(C)C)cc2)cc1 | inactive |
| CCN(CC)CCO | inactive |
| COP(=S)(OC)SCN1C(=O)c2ccccc2C1=O | inactive |
| [As]#[In] | inactive |
| Nc1ccc(N=Nc2ccccc2)cc1 | 47.4 µM (active) |
| CNC(=O)Oc1cccc2c1OC(C)(C)C2 | inactive |
| Cc1ccc(N=C=O)cc1N=C=O | inactive |
